- experimental-system: purified and unphosphorylated T315I Abl kinase domain (ABL_T315I_0P) (Mus musculus, UniProt P00520, T315I)
- Construct: The c-Abl T3151 KD (kinase domain) was purified as follows; Met-Ser-Leu (vector-derived residues) (N); made in house; host or cells: E. coli BL21(DE3) strains (Codon+RIL, or pSA0145 for the lambda phosphatase co-expression plasmid)
- Sequence (P00520 242-493 T315I limits assumed): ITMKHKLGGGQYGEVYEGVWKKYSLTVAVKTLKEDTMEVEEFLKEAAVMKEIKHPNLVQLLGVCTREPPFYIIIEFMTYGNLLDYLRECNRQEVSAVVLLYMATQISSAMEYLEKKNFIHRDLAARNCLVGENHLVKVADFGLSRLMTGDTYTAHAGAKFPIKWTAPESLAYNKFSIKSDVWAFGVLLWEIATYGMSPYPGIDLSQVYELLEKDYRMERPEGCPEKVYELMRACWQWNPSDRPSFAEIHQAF
- protocol-notes: c-Abl T315I (unphosphorylated kinase domain) pyruvate kinase/lactate dehydrogenase coupled enzyme assay
- Type: biochemical
- reported-conditions: 10 μM ATP

| compound | ABL_T315I_0P (IC50) |
| --- | --- |
| CN(C)C(=O)c1cncc(-c2cnc3[nH]cc(-c4ccccc4Cl)c3c2Cl)c1 | D (<0.01 μM) |
| COc1ccccc1-c1c[nH]c2ncc(Br)c(SC)c12 | B (1.0-0.1 μM) |
| COc1ccccc1-c1c[nH]c2ncc(-c3cncc(CC(=O)N(C)C)c3)c(Cl)c12 | D (<0.01 μM) |
| COc1cnccc1-c1c[nH]c2ncc(-c3cncc(C(O)C(=O)N(C)C)c3)c(Cl)c12 (stereo not shown) | D (<0.01 μM) |
| CN(C)C(=O)c1cc(-c2cnc3[nH]cc(-c4cccc(F)c4)c3c2Cl)cnc1N | D (<0.01 μM) |
| Nc1ncc(-c2cnc3[nH]cc(-c4cccc(F)c4)c3c2Cl)cc1C(=O)N1CC(O)C1 | D (<0.01 μM) |
| COc1ccc(F)cc1-c1c[nH]c2ncc(-c3cncc(C(=O)N(C)C)n3)c(Cl)c12 | D (<0.01 μM) |
| COc1ccccc1-c1c[nH]c2ncc(Br)c(N)c12 | C (0.1-0.01 μM) |
| COc1ccc(C(F)(F)F)cc1-c1c[nH]c2ncc(-c3cnc(N)c(C(=O)N(C)C)c3)c(Cl)c12 | D (<0.01 μM) |
| CN(C)C(=O)C(=O)c1cncc(-c2cnc3[nH]cc(-c4ccc(F)cc4)c3c2Cl)c1 | B (1.0-0.1 μM) |
| CCN(C)C(=O)c1cc(-c2cnc3[nH]cc(-c4cc(F)ccc4F)c3c2Cl)cnc1N | D (<0.01 μM) |
| COc1ccc(F)cc1-c1c[nH]c2ncc(-c3cncc(C(=O)N(C)C)c3)c(Cl)c12 | D (<0.01 μM) |
| COc1ccccc1-c1c[nH]c2ncc(Br)c(NCCO)c12 | B (1.0-0.1 μM) |
| CN(C)C(=O)C(O)c1cncc(-c2cnc3[nH]cc(-c4ccccc4)c3c2Cl)c1 (stereo not shown) | D (<0.01 μM) |
| CN(C)C(=O)c1cncc(-c2cnc3[nH]cc(-c4ccccc4F)c3c2Cl)n1 [6-[4-Chloro-3-(2-fluoro-phenyl)-1H-pyrrolo[2,3-b]pyridin-5-y] | D (<0.01 μM) |
| CN(C)C(=O)C(O)c1cncc(-c2cnc3[nH]cc(-c4ccccc4Cl)c3c2Cl)c1 (stereo not shown) | D (<0.01 μM) |
| CN(C)C(=O)c1cncc(-c2cnc3[nH]cc(-c4ccc(F)cc4)c3c2Cl)c1 | C (0.1-0.01 μM) |
| Cc1noc(C)c1-c1c[nH]c2ncc(-c3cncc(C(=O)N(C)C)c3)c(Cl)c12 | B (1.0-0.1 μM) |
| COc1ccccc1-c1c[nH]c2ncc(-c3cnc(N)c(C(=O)N(C)C)c3)c(Cl)c12 | D (<0.01 μM) |
